- target_or_test_system: human TASK-1 (Homo sapiens (Human))
- Sequence (O14649 whole entry): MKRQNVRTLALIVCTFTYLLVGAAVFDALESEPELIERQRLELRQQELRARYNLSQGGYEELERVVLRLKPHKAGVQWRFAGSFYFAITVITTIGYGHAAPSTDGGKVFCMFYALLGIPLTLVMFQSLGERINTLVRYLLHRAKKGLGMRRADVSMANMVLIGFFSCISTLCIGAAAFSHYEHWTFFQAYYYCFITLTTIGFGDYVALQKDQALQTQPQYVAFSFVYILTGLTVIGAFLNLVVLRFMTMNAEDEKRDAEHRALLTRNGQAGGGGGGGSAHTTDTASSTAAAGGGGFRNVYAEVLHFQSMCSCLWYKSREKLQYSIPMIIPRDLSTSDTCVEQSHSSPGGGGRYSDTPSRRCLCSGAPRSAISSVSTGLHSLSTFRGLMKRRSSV
- protocol_text: Inhibition of recombinant TASK-1 in stably transfected CHO cells (voltage-sensitive dye, 40 mM KCl depolarization)
- Assay type: cell-based
- experimental_setup: 40 mM potassium chloride
Known pIC50 of a selection of compounds
Reminder that pIC50 is minus the log10 of a molar concentration.

- compound: "CC(C)OC(=O)N1CC2CN(Cc3c(-c4ccc(Br)cc4)nc4ccccn34)CC2C1 (stereo not drawn)"
  numeric_result: 6.15

Turning now to a further compound:
pIC50 for Cc1ccc(F)cc1C(=O)N1CC2CN(Cc3c(-c4ccc(Cl)cc4)nc4ccccn34)CC2C1 (stereo not drawn) ? 5.90
